molecular target: 5-HT1A receptor (Homo sapiens); assay: cAMP accumulation assay, 5-HT1A function; settings: cells marked EC50 (agonist)
MEASURED_PARAMETER: pEC50
Just the number, please; pEC50 means minus log10 of the concentration in mol/L.

Previously resolved entries follow.
MOLECULE	TARGET_OF_ASSAY	NUMERIC_RESULT
CCCN(CCCc1c[nH]c2c(Cl)cccc12)C1COc2c(F)ccc(C(N)=O)c2C1 (stereo not shown) [Compound 113]	5-HT1A receptor (Homo sapiens)	7.80
COc1cccc2c1CC(N(CCCc1c[nH]c3ccccc13)CC1CC1)CO2 (stereo not shown) [Compound 43]	5-HT1A receptor (Homo sapiens)	7.97
CCCN(CCCCn1ccc2cccc(F)c21)C1COc2c(F)ccc(C(N)=O)c2C1 (stereo not shown) [Compound 190]	5-HT1A receptor (Homo sapiens)	6.49

Would you mind telling me what pEC50 value was observed for CCCN(CCCc1c[nH]c2ccc(F)cc12)C1CCc2cccc(OC)c2C1 (stereo not shown) [Compound 47] ? 8.46

---

target: cloned human 5-HT1A receptors (Homo sapiens, UniProt P08908); construct: expressed in transfected cells; assay: 35S-GTPγS binding assay, 5-HT1A function; type: biochemical; details: maximum inhibitory effect, in brackets after IC50
Sequence (P08908 whole entry): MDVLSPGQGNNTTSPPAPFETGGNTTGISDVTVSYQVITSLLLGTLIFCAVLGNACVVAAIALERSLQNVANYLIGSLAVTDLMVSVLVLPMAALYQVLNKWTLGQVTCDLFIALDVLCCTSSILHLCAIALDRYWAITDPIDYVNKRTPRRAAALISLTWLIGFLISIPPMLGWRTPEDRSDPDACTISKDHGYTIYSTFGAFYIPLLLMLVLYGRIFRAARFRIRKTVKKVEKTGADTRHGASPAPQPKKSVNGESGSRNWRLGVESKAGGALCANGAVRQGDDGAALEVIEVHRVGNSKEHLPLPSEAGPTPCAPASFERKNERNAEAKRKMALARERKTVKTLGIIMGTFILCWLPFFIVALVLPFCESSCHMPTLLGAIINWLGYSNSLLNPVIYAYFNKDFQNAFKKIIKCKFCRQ
MEASURED_PARAMETER: 5-HT1A Function GTPγS (Imax) (%)
Expressed in %, but write only the number.

Previously resolved entries follow.
COMPOUND	TARGET_OF_ASSAY	UNIT_SPEC	NUMERIC_RESULT
CCN(CCCc1c[nH]c2ccc(F)cc12)C1COc2c(F)ccc(C(N)=O)c2C1 (single isomer, unassigned; (-)) [Compound 3a]	cloned human 5-HT1A receptors (Homo sapiens, UniProt P08908)	%	79
CC(CCc1c[nH]c2c(F)cc(F)cc12)N(CC1CC1)C1COc2c(F)ccc(C(N)=O)c2C1 (single isomer, unassigned) [Compound 154c]	cloned human 5-HT1A receptors (Homo sapiens, UniProt P08908)	%	100
NC(=O)c1ccc(F)c2c1CC(N(CCCc1c[nH]c3c(F)cc(F)cc13)C1CCC1)CO2 (single isomer, unassigned; (-)) [Compound 9a]	cloned human 5-HT1A receptors (Homo sapiens, UniProt P08908)	%	100
NC(=O)c1ccc(F)c2c1CC(N(CC1CCc3[nH]c4ccc(F)cc4c3C1)C1CCC1)CO2 (single isomer, unassigned; (-)) [Compound 174d]	cloned human 5-HT1A receptors (Homo sapiens, UniProt P08908)	%	100

Would you mind telling me what 5-HT1A Function GTPγS (Imax) value was observed for CCN(CCCc1c[nH]c2ccc(F)cc12)C1COc2c(F)ccc(C(N)=O)c2C1 (single isomer, unassigned; (+)) [Compound 3b] ? 35.8

Would you mind telling me what 5-HT1A Function GTPγS (Imax) value was observed for NC(=O)c1ccc(F)c2c1C[C@@H](NCC1CCc3c([nH]c4ccc(F)cc34)C1)CO2 (single isomer, unassigned; (-)) [Compound 179b] ? 100

---

# reported 5-HT1A Function cAMP (Emax); entries follow
target: 5-HT1A receptor (Homo sapiens, UniProt P08908); assay: cAMP accumulation assay, 5-HT1A function; format: cell-based; settings: in brackets after EC50 or IC50
Sequence (P08908 whole entry): as the sequence (P08908 whole entry) above
Lab note: write values as number then unit, every time.

Would you mind telling me what 5-HT1A Function cAMP (Emax) value was observed for NC(=O)c1ccc(F)c2c1CC(N(CCCc1c[nH]c3ccc(F)cc13)C1CCC1)CO2 (single isomer, unassigned; (-)) ? 0%

Would you mind telling me what 5-HT1A Function cAMP (Emax) value was observed for CC(Cc1c[nH]c2ccc(F)cc12)CN(CC1CC1)[C@H]1COc2c(F)ccc(C(N)=O)c2C1 (single isomer, unassigned) [Compound 155b] ? 0%

Would you mind telling me what 5-HT1A Function cAMP (Emax) value was observed for CCN(CCCc1c[nH]c2ccc(F)cc12)C1COc2c(F)ccc(C(N)=O)c2C1 (single isomer, unassigned; (-)) [Compound 3a] ? 0%

---

# reported Emax; entries follow
target: cloned human 5-HT1A receptors (Homo sapiens); construct: expressed in transfected cells; test: 35S-GTPγS binding assay, 5-HT1A function; format: biochemical; conditions: maximum inhibitory effect, in brackets after IC50; read-out: 5-HT1A Function GTPγS (Imax)
Expressed in %, but write only the number.

Previously resolved entries follow.
MOLECULE	UNIT_SPEC	Emax
O=C(NC1CCC1)c1ccc(F)c2c1CC(N(CCCc1c[nH]c3ccc(F)cc13)C1CCC1)CO2 (stereo not shown) [Compound 65]	%	48
CC(C1CC1)N(CCCc1c[nH]c2ccc(F)cc12)C1COc2c(F)ccc(C(N)=O)c2C1 (stereo not shown) [Compound 6]	%	87
NC(=O)c1cccc2c1CC(N(CCCc1c[nH]c3ccc(F)cc13)C1CCC1)CO2 (stereo not shown) [Compound 134]	%	69
COc1cccc2c(CCCN(C3CCC3)C3COc4c(F)ccc(C(N)=O)c4C3)coc12 (stereo not shown) [Compound 164]	%	100
COc1cccc2c(CCCN(CC3CC3)C3COc4c(F)ccc(C(N)=O)c4C3)c[nH]c12 (stereo not shown) [Compound 103]	%	95
C[C@@H](CCN(C1CCC1)[C@@H]1COc2c(F)ccc(C(N)=O)c2C1)c1c[nH]c2ccc(F)cc12 [Compound 153b]	%	64
CNC(=O)c1ccc(F)c2c1C[C@@H](N(CCCCc1c[nH]c3ccc(F)cc13)C1CCC1)CO2 [Compound 145b]	%	100
CN(C)C(=O)c1ccc(F)c2c1CC(N(CCCc1c[nH]c3ccc(F)cc13)C1CCC1)CO2 (stereo not shown) [Compound 73]	%	40
COC(=O)c1ccc(F)c2c1C[C@@H](N(CCCCc1c[nH]c3ccc(F)cc13)C1CCC1)CO2 [Compound 58b]	%	94
CNC(=O)c1ccc(F)c2c1CC(N(CCc1c[nH]c3ccc(F)cc13)CC1CC1)CO2 (stereo not shown) [Compound 86]	%	100

Would you mind telling me what Emax value was observed for NC(=O)c1ccc(F)c2c1CC(N(CCCc1c[nH]c3c(Cl)cccc13)CC1CC1)CO2 (stereo not shown) [Compound 112] ? 100

Would you mind telling me what Emax value was observed for NC(=O)c1ccc(F)c2c1CC(N(CCCCn1ccc3cccc(F)c31)CC1CC1)CO2 (stereo not shown) [Compound 191] ? 74

Would you mind telling me what Emax value was observed for NC(=O)c1ccc(F)c2c1CC(N(CCCc1c[nH]c3c(Cl)cccc13)C1CCC1)CO2 (stereo not shown) [Compound 111] ? 100

---

biological target: serotonin transporter (Rattus norvegicus, UniProt P31652); construct: displace ^3H-paroxetine from male rat cortical membranes; from tissue; host or cells: male rat cortical membranes; test: 5-HT transporter affinity: displacement of 3H-paroxetine from male rat cortical membranes; format: binding; conditions: displacement of 3H-paroxetine; male rat cortical membranes; read-out: 5-HT Transporter Affinity Ki
Sequence (P31652 whole entry): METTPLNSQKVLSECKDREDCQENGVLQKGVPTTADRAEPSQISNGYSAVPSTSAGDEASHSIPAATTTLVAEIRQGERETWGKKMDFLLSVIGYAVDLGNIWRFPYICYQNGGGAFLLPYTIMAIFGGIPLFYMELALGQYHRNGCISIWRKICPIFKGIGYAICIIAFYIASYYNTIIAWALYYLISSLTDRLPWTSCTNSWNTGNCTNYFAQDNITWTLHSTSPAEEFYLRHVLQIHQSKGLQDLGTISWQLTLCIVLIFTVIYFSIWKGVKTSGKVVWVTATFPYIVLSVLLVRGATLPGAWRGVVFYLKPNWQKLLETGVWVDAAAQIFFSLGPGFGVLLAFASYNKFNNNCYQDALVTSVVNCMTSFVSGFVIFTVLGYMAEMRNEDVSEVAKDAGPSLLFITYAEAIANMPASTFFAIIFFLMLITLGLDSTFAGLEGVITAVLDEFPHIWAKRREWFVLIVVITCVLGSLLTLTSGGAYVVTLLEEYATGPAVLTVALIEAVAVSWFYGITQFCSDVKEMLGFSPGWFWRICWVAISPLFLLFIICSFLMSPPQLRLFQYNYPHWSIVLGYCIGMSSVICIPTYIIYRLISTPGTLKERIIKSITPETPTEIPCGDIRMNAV
MEASURED_PARAMETER: pKi
Just the number, please; pKi means minus log10 of the concentration in mol/L.

Previously resolved entries follow.
COMPOUND	NUMERIC_RESULT
COc1cccc2c1CC(N(CCCc1c[nH]c3ccc(C#N)cc13)CC1CC1)CO2 (stereo not shown)	8.28
CCCN(CCCCc1c[nH]c2ccc(F)cc12)C1COc2cccc(OC)c2C1 (stereo not shown)	7.90
CCCN(C(C)CCc1c[nH]c2ccc(F)cc12)C1COc2c(F)ccc(C(N)=O)c2C1 (single isomer, unassigned) [Compound 12c]	6.92
O=C(NC1CC1)c1ccc(F)c2c1CC(N(CCCc1c[nH]c3ccc(F)cc13)C1CCC1)CO2 (stereo not shown)	8.31
CNC(=O)c1ccc(F)c2c1CC(NCCCc1c[nH]c3ccc(F)cc13)CO2 (stereo not shown)	7.91
O=C(NCc1ccccc1)c1ccc(F)c2c1CC(N(CCCc1c[nH]c3ccc(F)cc13)C1CCC1)CO2 (stereo not shown)	7.82
CCCCCN(CCCc1c[nH]c2ccc(F)cc12)C1COc2c(F)ccc(C(N)=O)c2C1 (stereo not shown)	6.67
CNC(=O)c1ccc(F)c2c1CC(N(CCCc1c[nH]c3ccc(F)cc13)C1CCC1)CO2 (stereo not shown)	8.30

Would you mind telling me what pKi value was observed for NC(=O)c1cccc2c1CC(NCCCc1c[nH]c3ccc(F)cc13)CO2 (stereo not shown) ? 7.63

Would you mind telling me what pKi value was observed for NC(=O)c1ccc(F)c2c1CC(NCCCc1c[nH]c3ccc(F)cc13)CO2 (single isomer, unassigned; (-)) [Compound 1b] ? 7.12

Would you mind telling me what pKi value was observed for COc1cccc2c(CCN(CC3CC3)C3COc4c(F)ccc(C(N)=O)c4C3)coc12 (stereo not shown) ? 6.90

Would you mind telling me what pKi value was observed for CCCN(CCc1coc2c(OC)cccc12)C1COc2c(F)ccc(C(N)=O)c2C1 (stereo not shown) ? 6.92

Would you mind telling me what pKi value was observed for NC(=O)c1ccc(F)c2c1CC(N(CC1CCc3[nH]c4ccc(F)cc4c3C1)C1CCC1)CO2 (single isomer, unassigned; (-)) [Compound 174a] ? 6.07

Would you mind telling me what pKi value was observed for COc1cccc2c1CC(N[C@H]1CC[C@@H](c3c[nH]c4ccc(F)cc43)CC1)CO2 (relative stereo) [Compound 181a] ? 7.59

Would you mind telling me what pKi value was observed for NC(=O)c1cccc2c1CC(N(CCCc1c[nH]c3ccc(F)cc13)C1CCC1)CO2 (single isomer, unassigned; (-)) [Compound 134a] ? 8.56

Would you mind telling me what pKi value was observed for CCCN(CCCc1coc2c(OC)cccc12)C1COc2c(F)ccc(C(N)=O)c2C1 (stereo not shown) ? 6.27

Would you mind telling me what pKi value was observed for CCCN(CCCc1c[nH]c2ccc(Cl)cc12)C1COc2c(F)ccc(C(N)=O)c2C1 (stereo not shown) ? 6.82

Would you mind telling me what pKi value was observed for COc1cccc2c(CCCN(CC3CC3)C3COc4c(F)ccc(C(N)=O)c4C3)coc12 (stereo not shown) ? 6.04

Would you mind telling me what pKi value was observed for NC(=O)c1ccc(F)c2c1OCC(N(CCCc1c[nH]c3c(F)cc(F)cc13)CC1CC1)C2 (stereo not shown) ? 6.78

Would you mind telling me what pKi value was observed for COc1ccc2[nH]cc(CCCNC3COc4c(F)ccc(C(N)=O)c4C3)c2c1 (stereo not shown) ? 5.39

Would you mind telling me what pKi value was observed for NC(=O)c1ccc(F)c2c1CC(N(CCCc1c[nH]c3cc(F)ccc13)C1CCC1)CO2 (stereo not shown) ? 6.63

Would you mind telling me what pKi value was observed for CCCN(CCc1c[nH]c2ccc(F)cc12)C1CCc2cccc(OC)c2C1 (stereo not shown) ? 8.19

Would you mind telling me what pKi value was observed for CCCN(CCCc1c[nH]c2c(F)cc(F)cc12)C1COc2c(C(N)=O)ccc(F)c2C1 (stereo not shown) ? 8.17
